test: yeast display, Sf9 membrane polyspecificity reagent, FACS + sequencing; frameworks hold sequencing errors
Parameter: polyreactivity (PSR sort gate)

Consider the following illustrative entries.
QVQLVESGGGLVQAGGSLRLSSAASGRTFFYYAMGWYRQAPGKERELVAVISGSGARTYYADSVKGRFTISRDNAKYTVYLQMNSLKPEDTAVYYWIKVFARSRSSRYQAYDYWGQGTQVTVSS : high polyreactivity
QVQHVESGVGLVQAVGSLRLSCAASGLTFKYYAMGWYRQAAVKEWELVARLSRTGGSTNYADSVKGRFTISRDNAKNTLYLQMNSLKPEDTAVSYCNTQFSYSSAPPFWYTKMYYWGQGTQVTVSS : high polyreactivity
QVQLVESGGGLVQAGGSLRLSCAASGSIFPYYAMGWYRQAPGKEREFVAAITISGGSTYYADSVKGRFTISRDNAKNTVYLQMNSLKPEDTAVYYCNADKGYVYGDTFYQSGGYYSWGQGTQVTVSS : low polyreactivity
QFQLVESGGGLVQAGGSLRLSCAASGSIFPNYAMGWYRQAPGKDRELVAVITQRGGRTYYADSVKGRFTISRDNAKNTVYLQMNSLKPEDTAVYYCAASYRGVPEYDSWGQGTQVTVSS : low polyreactivity
QVQLVESGGALVQAGGSLRLSCAASGRILRGNAMGWYRPAPGKERELVADINYSDGSTYYADSVKGRFTISRDNAKNTVYLQMNSLKPEDTAVYYCAKKNPLVFTSGMDYWGQGTQVTVSS : low polyreactivity
QVQLVESGGVLVQEGGSLRLICAASGSIFGYYVMGWYRQAPGKERELVAAISRSGGSTYYADSVKGLFTISRDNAKTTVYLQMNSLKQEDTAVYYCAASFAVRYPRLDYWGQGTQVTVSS : high polyreactivity

State the recorded polyreactivity (PSR sort gate) for every item in the following list.
1. QVQLVESGGGLVQAGGSLRLSCAASGFTFTYYTMGWYRQAPGKERELVAAISWSGSSTYYADSVKGRFTISRDNAKNTVYLQMNSLKPEDTAVYYCAAKYRGKYYYWGQGTQVTVSS
2. QVQLVESGGGLVQAGGSLRLSCAASGSTFVTYAMGWYRQAPGKERELVAAISYSGGSTYADSVKGRFTISRDNAKNTVYLQMNSLKPEDTAVYYCNSDTSVDVRFDYWGQGTQVTVSS
3. QVQLVESGGGLVQAGGSLRLSCAASGNTFGFYAMGWYRQAPGKERELVAGITSGDSTYYADSVKGRFTISRDNEKNTVYLQMNSLKPVDTAVYYCNADFTDSYWSRYDYWGQGTQVTVSS

Output:
high polyreactivity
low polyreactivity
low polyreactivity

// for each sequence below, give its polyreactivity (PSR sort gate)
1. QVQLVESGGGLVQAGGSLRLSCAASGRTFNPYSLGWYRQAPGIVRELVAAISYRGGSTYNADSVKGRFTISRDNAKNTVYLQLNSLKPEDTAVYYCAKRGYASGSKWDYGYWGQGTQVTVSS
2. QVQLVESGGGLVQAGGSLRLSCAASGRIFGVYAMGWYRQAPGKERELVAGINGGDSTYYADSVKGRFTISRDNAKNTVYLQMNSLKPEDTAVYYCAAEADESGSNYDYWGQGTQVTVSS
3. QVQLVESGGGLVQAGGSLRLSCAASGLTLRNYAMGWYRQAPGKERELVARITTGGSTHYADSVKGRFTISRDNAKNTVSLQMHSLKPEDTAVYYCNTGPYTFVSPEYYYWGQGTQVTVSS
4. QVQLVESGGGLVQAGGSLRLSCAASGFIFYYYAMGWYRQAPGKERELVAAISWSGGSTYYADSVKGRFTISRDNAKNTVYLQMNSLKPEDTAVYDCAVSRDSYGGKGSFLYDYWGQGTQVTVSS
5. QVQLVESGGGLVQAGGSLRLSCAASGSTFTNYAMGWYRPAPGKERELVARITSSGSRTYYADSVKGRFTISRDNAKNTVYLQMNSLKPEDTAVYYCNAETYYLRYGRGYRRFDYWGQGTQVTVSS
6. QVQLVESGGGLVQAGGSLRLSCAASGSTFTYYAMGWYRQAPGKERELVAAIRNGGSTNYADSVKGRFTISRDNAKNTVYFQMNSLKPEDTAVSYCAADQYYYTQPCDMDYWGQGTQVTVSS
7. QVQLVESGGGLGQAGGSLRLTCAASGSTFWYYAMGWYRQAPGKERELVAAITSGDSTYYADSVKGRFTISRDNAKKTVYLQMNSLKPEDTAVYYCAADLPWEDGYYFYSGYTEYDYWGQGTQVTVSS

Output:
["high polyreactivity", "low polyreactivity", "low polyreactivity", "low polyreactivity", "high polyreactivity", "high polyreactivity", "low polyreactivity"]

Please state, for each entry, its recorded polyreactivity (PSR sort gate).
1. QVQLVESGGGLVQAGGSLRLSCAASGLIFPRYGMGWYRQAPGKERELVAAISRSGGNTYYADSVKGRFTISRDNAKNTVYLQMNSLKPEDTAVYYCAAYFSTAPKSQYKLDYRGQGTQVTVSS
2. QVQLVESGGGLVQAGGSLRLSCAASGYTIISYGMGWYTQAPGKERELVAAISSGDRTNYADSVKGRFTISRDNAKNTVYLQMNSLKPEDTAVYYCNADRASSSVGYSDEFGHDSWGQGTQVTVSS
3. QFQLVESGGGLVQAVVSLRLSCAASGSIFDIYDMGWYRQAPGKETELDAAIRSGDRTHYADSVKGRFTISRDNAKITVYLQMNSLKPEDTAVYYCAADRYIYLNREHDYWGQGTQVTVSS
4. QVQLVESGGGLVQAGGSLRLSCAASGSIFNVYAMGWYRQAPGKERELVAAISDGDGSTFYADSVKGRFTISRDNAKNTVYLQMNSLKPEDTAVYYCAKDYRWDSKFDYWGQGTQVTVSS
5. QVQLVESGGGLVQAGGSLRLSCAASGRTFYRNAMGWSRQAPGKEREFVAVISVSGGSTYYADSVKGRFTISRDNAKNTVYLQMNSLKPEDTAVYYCAKRGPVRKTAYDYWGQGTQVTVSS

Output:
["high polyreactivity", "low polyreactivity", "low polyreactivity", "low polyreactivity", "low polyreactivity"]
